study.target: Mer (phospho-Mer, MERTK-transfected 293A cells) (Homo sapiens (Human))
protocol.details: Mer autophosphorylation ELISA in transient transfected 293A cells (Example H)
Format: cell-based
measurement.parameters: cellular activity; Mer autophosphorylation ELISA in transient transfected 293A cells
pIC50: −log10 of the molar value.
Attribute: pIC50

compound	pIC50
CCn1cc(-c2ccc(F)cc2)c(=O)c(C(=O)Nc2ccc(Oc3ccnc4cc(OC)cnc34)c(F)c2)c1C [Compound 240]	> 7.00
COc1cc2nccc(Oc3cc(F)c(NC(=O)c4cnc(C)c(-c5ccc(F)cc5)c4O)cc3F)c2nc1C [Compound 542]	> 7.00
COc1ccc2nccc(Oc3ccc(NC(=O)c4ccc(C)n(-c5ccc(F)cc5)c4=O)cc3F)c2c1 [Compound 346]	> 7.00
COc1cc2nccc(Oc3ccc(NC(=O)c4cn(C)c(C)c(-c5ccc(F)cc5C)c4=O)cc3F)c2nc1OC [Compound 75]	> 7.00
COCCOc1nc2c(Oc3ccc(NC(=O)c4ccc(C)n(-c5ccc(F)cc5)c4=O)cc3F)ncnc2cc1OC [Compound 650]	> 7.00

So, C=C(C)c1cnc2c(Oc3ccc(NC(=O)c4cnc(C)c(-c5ccc(F)cc5C)c4O)cc3)ccnc2c1 [Compound 448] ? Its pIC50 was > 7.00

So, COc1cc2nccc(Oc3ccc(NC(=O)c4cn(CC(F)(F)F)c(C)c(-c5ccc(F)cc5)c4=O)cc3F)c2nc1OC [Compound 74] ? Its pIC50 was > 7.00

So, COc1ccc2nccc(Oc3ccc(NC(=O)c4cnc(C)n(-c5ccc(F)cc5)c4=O)cc3F)c2n1 [Compound 232] ? Its pIC50 was > 7.00

So, COc1cc2nccc(Oc3ccc(NC(=O)c4nn(CC(F)F)c(C)c(-c5ccc(F)cc5)c4=O)cc3)c2nc1OC [Compound 776] ? Its pIC50 was > 7.00

----------
study.target: KDR (phospho-KDR, VEGF165-stimulated HUVEC cells) (Homo sapiens (Human))
protocol.details: KDR autophosphorylation ELISA in HUVEC cells (Example G)
Assay type: cell-based
measurement.parameters: cellular activity; KDR autophosphorylation ELISA in HUVEC cells
observable: IC50

molecule	IC50
COc1cc2nccc(Oc3c(F)cc(NC(=O)c4cn(C)c(C)c(-c5ccc(F)cc5)c4=O)cc3F)c2nc1OC [Compound 392]	> 300 nM

Item CNC(=O)c1cc2c(Oc3ccc(NC(=O)c4cnc(C)c(-c5ccc(F)cc5)c4O)cc3)ccnc2cc1OC [Compound 540] was tested on KDR (phospho-KDR, VEGF165-stimulated HUVEC cells) (Homo sapiens (Human)); the reported IC50 is < 100 nM

Item COc1cc2nccc(Oc3ccc(NC(=O)c4c(C)ncc(-c5ccc(F)cc5)c4O)cc3)c2nc1OC [Compound 235] was tested on KDR (phospho-KDR, VEGF165-stimulated HUVEC cells) (Homo sapiens (Human)); the reported IC50 is < 100 nM

Item COc1cc(-c2c(C)nc(C)c(C(=O)Nc3ccc(Oc4ccnc5cc(OC)c(OC)nc45)c(F)c3)c2O)ccc1F [Compound 709] was tested on KDR (phospho-KDR, VEGF165-stimulated HUVEC cells) (Homo sapiens (Human)); the reported IC50 is < 100 nM

----------
study.target: Mer (phospho-Mer, MERTK-transfected 293A cells) (Homo sapiens (Human), UniProt Q12866)
Sequence (Q12866 21-999): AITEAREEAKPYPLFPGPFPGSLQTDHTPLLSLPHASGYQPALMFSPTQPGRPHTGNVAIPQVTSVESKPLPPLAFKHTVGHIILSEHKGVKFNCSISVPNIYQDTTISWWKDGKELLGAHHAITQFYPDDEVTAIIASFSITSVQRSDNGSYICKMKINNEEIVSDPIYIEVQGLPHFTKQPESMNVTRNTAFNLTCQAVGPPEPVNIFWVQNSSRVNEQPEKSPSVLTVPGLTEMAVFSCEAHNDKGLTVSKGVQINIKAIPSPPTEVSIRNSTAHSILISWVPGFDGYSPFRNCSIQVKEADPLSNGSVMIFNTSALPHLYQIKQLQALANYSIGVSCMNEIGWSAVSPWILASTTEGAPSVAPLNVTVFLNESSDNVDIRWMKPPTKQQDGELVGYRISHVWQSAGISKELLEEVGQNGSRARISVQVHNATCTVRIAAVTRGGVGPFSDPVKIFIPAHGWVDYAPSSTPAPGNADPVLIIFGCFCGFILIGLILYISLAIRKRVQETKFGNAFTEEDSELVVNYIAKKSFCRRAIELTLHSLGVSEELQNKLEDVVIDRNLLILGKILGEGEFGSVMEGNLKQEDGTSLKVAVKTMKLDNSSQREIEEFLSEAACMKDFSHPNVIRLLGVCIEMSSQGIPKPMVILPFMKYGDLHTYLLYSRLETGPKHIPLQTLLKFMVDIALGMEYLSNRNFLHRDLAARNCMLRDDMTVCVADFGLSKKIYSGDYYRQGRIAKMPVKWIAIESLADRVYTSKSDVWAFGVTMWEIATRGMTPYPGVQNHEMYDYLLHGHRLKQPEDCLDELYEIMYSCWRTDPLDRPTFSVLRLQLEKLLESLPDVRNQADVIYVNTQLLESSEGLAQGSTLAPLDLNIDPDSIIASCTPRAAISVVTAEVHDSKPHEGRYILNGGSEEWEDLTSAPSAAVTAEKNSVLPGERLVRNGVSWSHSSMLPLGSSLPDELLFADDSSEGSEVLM
protocol.details: Mer autophosphorylation ELISA in transient transfected 293A cells (Example H)
Assay type: cell-based
measurement.parameters: cellular activity; Mer autophosphorylation ELISA in transient transfected 293A cells
pIC50: −log10 of the molar value.
observable: pIC50

Some entries whose results are on file:
1. COc1cc2nccc(Oc3ccc(NC(=O)c4cn(C5CCCC5)c(C)c(-c5ccc(F)cc5)c4=O)cc3F)c2nc1OC > 7.00
2. COc1cc2nccc(Oc3ccc(NC(=O)c4c(C)c(C)c(C)n(-c5ccc(F)cc5)c4=O)cc3)c2nc1OC > 7.00
3. Cc1cc(F)ccc1-c1c(C)nnc(C(=O)Nc2ccc(Oc3ccnc4cc(C)c(F)nc34)c(F)c2)c1O > 7.00
4. COc1cnc2c(Oc3ccc(NC(=O)c4cnc(C)c(-c5ccc(F)cc5C)c4O)cc3)ccnc2c1 > 7.00

So, `COc1cnc2c(Oc3ccc(NC(=O)c4c(C)cc(C)n(-c5ccc(F)cc5)c4=O)cc3)ccnc2c1` ? Its pIC50 was > 7.00

So, `COc1cc2nccc(Oc3ccc(NC(=O)c4c(C)n(C)nc(-c5ccc(F)cc5C)c4=O)cc3F)c2nc1OC` ? Its pIC50 was > 7.00

So, `COc1cc2nccc(Oc3ccc(NC(=O)c4cn(C(C)C)c(C)c(-c5ccc(Cl)c(Cl)c5)c4=O)cc3F)c2nc1OC` ? Its pIC50 was > 7.00

----------
study.target: KDR (phospho-KDR, VEGF165-stimulated HUVEC cells) (Homo sapiens (Human), UniProt P35968)
Sequence (P35968 20-1356): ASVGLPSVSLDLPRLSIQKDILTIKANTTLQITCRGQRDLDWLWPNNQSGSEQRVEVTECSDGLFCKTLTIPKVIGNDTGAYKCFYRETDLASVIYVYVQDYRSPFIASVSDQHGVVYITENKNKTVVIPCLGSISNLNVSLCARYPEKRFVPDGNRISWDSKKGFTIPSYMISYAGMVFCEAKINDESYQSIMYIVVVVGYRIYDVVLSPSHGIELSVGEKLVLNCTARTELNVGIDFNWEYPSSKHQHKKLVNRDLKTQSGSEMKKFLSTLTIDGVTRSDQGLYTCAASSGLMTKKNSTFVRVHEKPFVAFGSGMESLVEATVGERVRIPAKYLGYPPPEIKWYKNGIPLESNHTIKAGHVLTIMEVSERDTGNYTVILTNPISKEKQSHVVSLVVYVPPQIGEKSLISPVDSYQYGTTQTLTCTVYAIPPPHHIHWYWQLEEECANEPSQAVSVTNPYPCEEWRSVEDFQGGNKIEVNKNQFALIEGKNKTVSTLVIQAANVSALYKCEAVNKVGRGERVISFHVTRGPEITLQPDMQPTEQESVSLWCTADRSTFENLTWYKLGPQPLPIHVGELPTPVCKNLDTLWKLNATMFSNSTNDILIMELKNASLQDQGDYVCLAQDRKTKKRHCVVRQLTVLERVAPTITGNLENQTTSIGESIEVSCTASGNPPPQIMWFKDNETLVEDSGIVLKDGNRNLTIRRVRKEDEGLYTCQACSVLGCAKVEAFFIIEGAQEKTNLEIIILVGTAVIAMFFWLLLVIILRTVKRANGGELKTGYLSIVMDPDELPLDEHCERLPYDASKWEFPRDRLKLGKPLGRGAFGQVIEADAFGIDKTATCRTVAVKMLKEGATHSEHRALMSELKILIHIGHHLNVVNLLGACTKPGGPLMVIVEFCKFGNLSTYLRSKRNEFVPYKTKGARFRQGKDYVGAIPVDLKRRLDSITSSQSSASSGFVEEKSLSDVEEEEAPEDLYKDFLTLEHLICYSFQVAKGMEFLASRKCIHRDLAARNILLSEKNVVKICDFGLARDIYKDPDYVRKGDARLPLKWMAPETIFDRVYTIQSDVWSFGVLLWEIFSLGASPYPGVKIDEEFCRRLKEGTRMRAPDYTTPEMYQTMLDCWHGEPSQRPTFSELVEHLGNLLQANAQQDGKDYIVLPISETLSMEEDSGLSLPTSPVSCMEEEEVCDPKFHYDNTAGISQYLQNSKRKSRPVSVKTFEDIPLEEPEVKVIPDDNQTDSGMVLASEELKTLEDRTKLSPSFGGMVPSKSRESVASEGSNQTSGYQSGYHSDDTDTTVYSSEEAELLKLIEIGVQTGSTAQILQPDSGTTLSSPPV
protocol.details: KDR autophosphorylation ELISA in HUVEC cells (Example G)
Format: cell-based
measurement.parameters: cellular activity; KDR autophosphorylation ELISA in HUVEC cells
pIC50: −log10 of the molar value.
Attribute: pIC50

Some entries whose results are on file:
compound	pIC50
COc1cc2nccc(Oc3ccc(NC(=O)c4c(C)c(C(C)=O)c(C)n(-c5ccc(F)cc5)c4=O)cc3)c2nc1OC [Compound 322]	6.52 to 7.00
C=C(C)c1cnc2c(Oc3ccc(NC(=O)c4cnc(C)n(-c5ccc(F)cc5)c4=O)cc3F)ccnc2c1 [Compound 465]	6.52 to 7.00
CCn1cc(C(=O)Nc2ccc(Oc3ccnc4cc(OC)cnc34)cc2)c(=O)c(-c2ccc(F)cc2)c1C [Compound 163]	< 6.52
COc1cc(NC(=O)c2cn(C)c(C)c(-c3ccc(F)cc3)c2=O)c(F)cc1Oc1ccnc2cc(OC)c(OC)nc12 [Compound 745]	< 6.52
COc1cc2nccc(Oc3ccc(NC(=O)c4cn(C(C)C)c(C)c(-c5ccc(F)cc5)c4=O)cc3F)c2nc1O [Compound 580]	< 6.52
COCc1cnn(-c2ccc(F)cc2)c(=O)c1C(=O)Nc1ccc(Oc2ccnc3cc(OC)c(OC)nc23)c(F)c1 [Compound 533]	> 7.00
COc1cnc2c(Oc3ccc(NC(=O)c4cnc(C)n(-c5ccc(F)cc5)c4=O)cc3F)ccnc2c1 [Compound 265]	6.52 to 7.00
Cc1cc(F)ccc1-c1c(C)nc(C)c(C(=O)Nc2ccc(Oc3ccnc4cc(C)c(F)nc34)c(F)c2)c1O [Compound 428]	> 7.00
COc1cc2nccc(Oc3ccc(NC(=O)c4cn(CCN5CCOCC5)cc(-c5ccc(F)cc5)c4=O)cc3F)c2nc1OC [Compound 157]	6.52 to 7.00
COc1cc2nccc(Oc3ccc(NC(=O)c4cn(OC)cc(-c5ccc(F)cc5)c4=O)cc3)c2nc1OC [Compound 127]	> 7.00

So, COc1cc2nccc(Oc3ccc(NC(=O)C4=C5CCCN5CC(c5ccc(F)cc5)C4=O)cc3F)c2nc1OC (racemic) [Compound 373] ? Its pIC50 was < 6.52

So, COc1cc2nccc(Oc3ccc(NC(=O)c4nnc(C)c(-c5ccc(F)cc5)c4OC)cc3F)c2cc1OC [Compound 571] ? Its pIC50 was > 7.00

So, CCOCc1nc(C)c(-c2ccc(F)cc2C)c(O)c1C(=O)Nc1ccc(Oc2ccnc3cc(OC)c(OC)nc23)cc1 [Compound 780] ? Its pIC50 was 6.52 to 7.00

So, C=C(C)c1cnc2c(Oc3ccc(NC(=O)c4c(C)nc(C)c(-c5ccc(F)cc5)c4O)cc3F)ccnc2c1 [Compound 451] ? Its pIC50 was > 7.00

So, COc1cc2nccc(Oc3ccc(NC(=O)c4cc(C)c(C)n(-c5ccc(F)cc5)c4=O)cc3F)c2nc1OC [Compound 370] ? Its pIC50 was > 7.00

So, COc1cc2nccc(Oc3ccc(NC(=O)c4c(C)n(C)c(C)c(-c5ccc(F)cc5C)c4=O)cc3F)c2nc1OC [Compound 774] ? Its pIC50 was 6.52 to 7.00

So, COc1cc2nccc(Oc3ccc(NC(=O)c4ccc(C)n(-c5ccc(F)cc5C)c4=O)cc3F)c2nc1OC [Compound 219] ? Its pIC50 was > 7.00

----------
study.target: Met (phospho-Met, HGF-stimulated PC-3 prostate cancer cells) (Homo sapiens (Human))
Sequence (P08581 25-1390): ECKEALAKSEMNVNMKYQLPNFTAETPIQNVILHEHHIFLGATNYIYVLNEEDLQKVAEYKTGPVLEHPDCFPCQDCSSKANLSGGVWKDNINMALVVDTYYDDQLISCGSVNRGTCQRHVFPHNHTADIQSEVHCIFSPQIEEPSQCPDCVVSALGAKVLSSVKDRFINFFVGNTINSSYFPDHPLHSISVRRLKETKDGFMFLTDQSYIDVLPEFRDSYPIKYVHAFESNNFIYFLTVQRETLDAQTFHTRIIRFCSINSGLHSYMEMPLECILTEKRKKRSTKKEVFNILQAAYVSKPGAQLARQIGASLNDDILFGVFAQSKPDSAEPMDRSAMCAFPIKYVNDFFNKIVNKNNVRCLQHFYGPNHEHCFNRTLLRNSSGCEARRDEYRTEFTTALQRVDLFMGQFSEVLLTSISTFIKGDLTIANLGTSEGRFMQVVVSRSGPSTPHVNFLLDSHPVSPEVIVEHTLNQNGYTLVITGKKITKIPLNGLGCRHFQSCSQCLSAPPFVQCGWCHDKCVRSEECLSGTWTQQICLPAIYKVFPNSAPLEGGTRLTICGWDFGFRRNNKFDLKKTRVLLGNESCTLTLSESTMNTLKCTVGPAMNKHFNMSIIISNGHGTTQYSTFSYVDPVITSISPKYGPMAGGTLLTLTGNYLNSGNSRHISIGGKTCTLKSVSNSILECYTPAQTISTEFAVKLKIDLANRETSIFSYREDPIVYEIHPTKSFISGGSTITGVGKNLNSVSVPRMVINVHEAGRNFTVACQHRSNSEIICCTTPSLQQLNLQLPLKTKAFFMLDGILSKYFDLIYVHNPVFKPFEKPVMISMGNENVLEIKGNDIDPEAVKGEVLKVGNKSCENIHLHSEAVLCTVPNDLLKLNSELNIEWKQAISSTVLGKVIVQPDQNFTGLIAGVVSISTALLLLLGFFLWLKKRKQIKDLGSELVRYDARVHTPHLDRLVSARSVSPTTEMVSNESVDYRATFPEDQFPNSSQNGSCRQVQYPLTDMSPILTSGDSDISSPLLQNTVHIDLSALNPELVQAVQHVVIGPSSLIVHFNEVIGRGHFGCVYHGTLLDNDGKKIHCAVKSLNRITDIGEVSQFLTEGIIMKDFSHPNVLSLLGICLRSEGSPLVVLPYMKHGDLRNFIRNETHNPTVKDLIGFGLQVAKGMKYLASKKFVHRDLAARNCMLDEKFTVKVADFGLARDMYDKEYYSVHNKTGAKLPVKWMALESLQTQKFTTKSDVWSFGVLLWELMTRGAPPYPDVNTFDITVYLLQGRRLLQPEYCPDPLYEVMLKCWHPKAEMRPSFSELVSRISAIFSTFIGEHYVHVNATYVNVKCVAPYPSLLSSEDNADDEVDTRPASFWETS
protocol.details: Met autophosphorylation ELISA in PC-3 cells (Example F)
Format: cell-based
measurement.parameters: cellular activity; Met autophosphorylation ELISA in PC-3 cells; read-out: c-Met IC50
pIC50: −log10 of the molar value. Counter-ions that a name gives are not always drawn.
Attribute: pIC50

Some entries whose results are on file:
compound	study.target	pIC50
Cc1nc2c(Oc3ccc(NC(=O)c4cn(C(C)C)c(C)c(-c5ccc(F)cc5)c4=O)cc3)ccnc2cc1-c1cccnc1 [Compound 613, hydrochloride]	Met (phospho-Met, HGF-stimulated PC-3 prostate cancer cells) (Homo sapiens (Human))	> 7.00
COc1cc2nccc(Oc3ccc(NC(=O)c4c(C)n(C)c(C)c(-c5ccc(F)cc5C)c4=O)cc3F)c2nc1OC [Compound 774]	Met (phospho-Met, HGF-stimulated PC-3 prostate cancer cells) (Homo sapiens (Human))	> 7.00

Switching to the query record.
Item C=C(C)c1cnc2c(Oc3ccc(NC(=O)c4c(C)cc(C)n(-c5ccc(F)cc5)c4=O)cc3F)ccnc2c1 [Compound 457] was tested on Met (phospho-Met, HGF-stimulated PC-3 prostate cancer cells) (Homo sapiens (Human)); the reported pIC50 is > 7.00
